Target: T1, C-terminal domain of subunit H (HCT), N-terminal MBP fusion (S. cerevisiae, UniProt P41807 353-478)
T1 construct: V-ATPase subunit H (Vma13p), S. cerevisiae, C-terminal globular domain 353-478 (126 amino acids); Construct provided by the laboratory of Dr. Patricia Kane; also called MBP-HCT; source: E. coli, purified (amylose column; ultrafiltration or size exclusion chromatography); not shown: MBP, N-terminal, kept
T1 sequence (looked up): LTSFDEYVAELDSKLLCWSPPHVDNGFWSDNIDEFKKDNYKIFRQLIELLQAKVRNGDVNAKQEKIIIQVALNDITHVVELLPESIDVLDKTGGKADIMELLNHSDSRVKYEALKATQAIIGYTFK
Test: peptide or protein array; 20-mer peptides linked at their C-terminal end to cellulose and spotted in duplicate on glass slides; blocked in 2% nonfat milk; purified probe at 4 µM in TBS for 1 hour at 4°C; bound probe detected through MBP or FLAG with HRP-coupled antibody (chemiluminescence); hits by ANOVA (p 0.05, Bonferroni) and HCL in MeV, score of at least 1 in 75% of the spots
Conditions: both partners purified
Ends that are not written are not given here. cellulose = not defined here
readout-kind: binding result

[[record]]
binder = "FILISLPQNAQPVTAPGSKT-cellulose (peptide, UniProt P31412 11-30, looked up, reading uncertain, V-ATPase subunit C, S. cerevisiae, residues 11-30; source: synthetic peptide, spotted on glass slide array (Intavis)) [C(11-30)]"
readout_kind = "binding result"
val = "binds"

[[record]]
binder = "FQRTFVNEIRRLDNVERQYR-cellulose (peptide, UniProt P32563 51-70, looked up, reading uncertain, V-ATPase Vo subunit a (gene Vph1), S. cerevisiae, residues 51-70; source: synthetic peptide, spotted on glass slide array (Intavis)) [a(51-70)]"
readout_kind = "binding result"
val = "binds"

[[record]]
binder = "GKKSDFTLYHTWPVRVPRPV-cellulose (peptide, UniProt P17255 205-224, looked up, reading uncertain, source: synthetic peptide, spotted on glass slide array (Intavis)) [A(205-224)]"
readout_kind = "binding result"
val = "binds"

